Reported koff by item:
# systemName: T1, cynomolgus monkey Siglec15-his protein (cynomolgus monkey)
# T1 construct: In house made; also called Cynomolgus Siglec15-his; cynomolgus Siglec15
# T1 chain: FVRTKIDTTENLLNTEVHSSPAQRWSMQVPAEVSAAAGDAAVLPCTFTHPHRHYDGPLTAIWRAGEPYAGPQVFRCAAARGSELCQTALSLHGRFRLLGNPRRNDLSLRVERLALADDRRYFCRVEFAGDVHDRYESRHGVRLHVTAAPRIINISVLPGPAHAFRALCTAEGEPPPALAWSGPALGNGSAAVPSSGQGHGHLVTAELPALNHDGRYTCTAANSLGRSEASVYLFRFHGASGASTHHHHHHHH
# procedureSummary: SPR Biacore T200, antibody captured by anti-human IgG, antigen as analyte, 1:1 fit
Respond with the bare value in s⁻¹.

Given the entry anti-Siglec15 benchmark (ch5G12) (antibody, human IgG1, kappa, V domains shown, ch5G12 (US 20190202912A1); also called BM; Siglec15-ch5G9) VH: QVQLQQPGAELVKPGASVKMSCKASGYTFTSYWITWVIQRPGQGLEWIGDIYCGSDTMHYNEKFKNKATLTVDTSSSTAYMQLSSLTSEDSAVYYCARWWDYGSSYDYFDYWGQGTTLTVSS VL: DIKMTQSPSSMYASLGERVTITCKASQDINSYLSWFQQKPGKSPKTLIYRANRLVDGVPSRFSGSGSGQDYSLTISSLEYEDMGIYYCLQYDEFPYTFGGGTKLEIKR , report its measured koff.
0.000781

Value lookup for koff; key = A2A5C7E8-3 (antibody, human IgG1, kappa, V domains shown, Variant of A2A5C7E8 modified in VH CDR2 (X2 = K)) VH: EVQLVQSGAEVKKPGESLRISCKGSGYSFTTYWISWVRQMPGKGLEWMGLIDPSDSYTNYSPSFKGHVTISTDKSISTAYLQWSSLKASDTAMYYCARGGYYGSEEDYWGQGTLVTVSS VL: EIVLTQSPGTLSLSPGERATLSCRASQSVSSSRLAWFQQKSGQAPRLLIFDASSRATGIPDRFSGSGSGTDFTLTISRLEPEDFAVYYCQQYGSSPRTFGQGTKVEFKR
5.32e-05

Please look up its koff: A2A5C7E8 (antibody, V domains shown, Fully human antibody from transgenic mouse hybridoma; also called A2A5C7E8-1) VH: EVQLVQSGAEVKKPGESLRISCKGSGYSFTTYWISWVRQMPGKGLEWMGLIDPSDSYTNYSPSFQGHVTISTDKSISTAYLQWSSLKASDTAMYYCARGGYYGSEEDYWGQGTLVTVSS VL: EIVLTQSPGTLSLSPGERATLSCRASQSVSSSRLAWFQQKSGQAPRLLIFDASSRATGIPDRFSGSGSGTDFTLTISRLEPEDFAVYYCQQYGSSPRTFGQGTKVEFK
7.96e-05

Any idea what its koff is? The binder is A2A5C7E8-2 (antibody, human IgG1, kappa, V domains shown, Variant of A2A5C7E8 modified in VH CDR2 (X1 = E)) VH: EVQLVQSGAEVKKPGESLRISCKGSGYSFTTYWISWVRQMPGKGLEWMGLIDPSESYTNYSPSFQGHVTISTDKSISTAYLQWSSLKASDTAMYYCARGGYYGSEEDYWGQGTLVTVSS VL: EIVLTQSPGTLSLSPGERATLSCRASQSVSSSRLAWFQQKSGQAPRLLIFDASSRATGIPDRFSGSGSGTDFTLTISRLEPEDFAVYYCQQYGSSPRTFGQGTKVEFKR
0.000167
